# assay-explanation: HSF-1 activators, primary screen, NIH3T3-HGL cells, MG132 stress, luminescence, single point (AID 504408);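 further: 0% = median of the neutral control wells and 100% = twice that signal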
# measurement-conditions: NIH3T3-HGL HSF-1 luciferase reporter, MG132, 8 h; at 9 µM; stronger effect = higher value; 100% = twice DMSO control signal
The campaign covered roughly 300,000 compounds. About 5,200 (1.7%) were called active. Only a selection was taken, and actives are over-represented in it overall.
measure-name: activation (%)
The response must be a number in % with no trailing unit.

>>> df
                                   molecule  measurement_units  reported_value
0  COc1ccccc1CCNC(=O)CN1C(=O)NC2(CCCC2)C1=O                  %           -21.2
1         O=C(/C=C\NCC(=O)c1ccccc1)c1ccccc1                  %            16.4
2  CC(C)N(Cc1nnc(-c2ccc(Cl)cc2)o1)C(=O)C1=COCCO1                  %           -12.7
3  CCN1C(=O)[C@@H]2[C@@H](c3ccc(-c4cccc(Cl)c4)cc3)N3CCC[C@@]3(C(=O)OC)[C@@H]2C1=O                  %              15
4  Cc1ccc2nc(NC(=O)C3CSC4(C)CCC(=O)N34)sc2c1 (stereo unspecified)                  %            10.5
5  Cc1cc(C)n2nc(C(=O)OC(C)C(=O)c3cc(C)c(C)cc3C)nc2n1 (stereo unspecified)                  %            4.08

Reported activation, molecule CCCCn1c(N)c(N(CC(C)C)C(=O)c2ccc(-n3c(C)ccc3C)cc2)c(=O)[nH]c1=O : ____
4.3

Ok, now COc1cc(SC)ccc1C(=O)Nc1nc(C)cs1
-71.7

Ok, now C=CS(=O)c1sc(Cl)c(N2CCOCC2)c1[N+](=O)[O-] (stereo unspecified)
103

Ok, now COc1cccc(N2CC(NC(=O)c3ccc4ccccc4c3)CC2=O)c1 (stereo unspecified)
-3.4

====

# assay-explanation: HSF-1 activators, primary screen, NIH3T3-HGL cells, MG132 stress, luminescence, single point (AID 504408);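 further: 0% = median of the neutral control wells and 100% = twice that signal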
# measurement-conditions: NIH3T3-HGL HSF-1 luciferase reporter, MG132, 8 h; at 9 µM; stronger effect = higher value; 100% = twice DMSO control signal
About 5,200 (1.7%) of roughly 300,000 compounds were called active. What follows is part of a selection rich in actives, with near analogues and random picks from the rest.
measure-name: activation (%)
The response must be a number in % with no trailing unit.

// known answers, use as guide
>>> df
                                   compound  measure_name  reported_value
0  CN(c1cccc(NC(=O)Nc2ccc(Cl)cc2)c1)S(C)(=O)=O    activation             115
1  CCOC(=O)N1CCN(C(=O)CNC(=O)Cc2ccc(Cl)cc2)CC1    activation            9.04
2           Cc1noc(C)c1COc1ccc2ccc(=O)oc2c1    activation           0.156
3        O=C(NNC(=S)Nc1ccc(Br)cc1Cl)c1ccco1    activation              59
4  Cc1cc(C)cc(NC(=O)C2CCN(c3nc(C)cc(C)n3)CC2)c1    activation              11
5  COc1cccc(CNC(=O)C(=O)NCCC2CCCCN2S(=O)(=O)c2ccc(C)cc2)c1 (configuration not stated)    activation           -8.41

Reported activation, compound Cc1cc(C)c2c(NC(=O)C3CC3)nn(C)c2n1 : ____
56.3

Ok, now CC(C)OC(=O)c1ccc(COc2ccc3ccc(=O)oc3c2)o1
65.7

Ok, now Cc1ccc(S(=O)(=O)CCC(=O)OCC(=O)N(C)C2CCS(=O)(=O)C2)cc1 (configuration not stated)
2.33

Ok, now CCCn1c(C)cc(/C=C(\C#N)C(=O)OCC(=O)N(C)c2c(N)n(Cc3ccccc3)c(=O)[nH]c2=O)c1C
-4.32

Ok, now CCOC(=O)c1ccc(CS(=O)c2ccc(Cl)cc2)o1 (configuration not stated)
8.33

Ok, now O=C(NCCN1CCCC(O)C1)c1cc(COc2c(F)cccc2F)on1 (configuration not stated)
-5.99

Ok, now CCc1noc(C)c1C(=O)Nc1nc(-c2ccccc2)cs1
6.16

Ok, now CCCCn1c(N)c(N(CC(C)C)C(=O)c2ccc(Br)o2)c(=O)[nH]c1=O
-5.41

Ok, now COc1ccc(/C=C(/NC(=O)c2ccc(C)cc2)c2nc3ccccc3[nH]2)cc1OC
-0.506

====

# assay-explanation: HSF-1 activators, primary screen, NIH3T3-HGL cells, MG132 stress, luminescence, single point (AID 504408);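 further: 0% = median of the neutral control wells and 100% = twice that signal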
# measurement-conditions: NIH3T3-HGL HSF-1 luciferase reporter, MG132, 8 h; at 9 µM; 100% = twice DMSO control signal
Out of some 300,000 compounds screened, about 5,200 (1.7%) were called active.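 The calls were made as follows: active = mean replicate activation of at least 50% with a set share of replicates each reaching 50%; inconclusive = only one of those two conditions met; inactive = mean below 50% and too few replicates reaching it.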 The full list was thinned out, with actives kept by preference.
Result category, one only: active, inactive

Test call for this compound, please: Cc1ccc(C)c(OCC(=O)N2CCN(C(=O)c3ccco3)CC2)c1
inactive

Ok, now O=C1CC(c2ccccc2)CC(O)=C1C=NCCN1CCOCC1 (stereo unspecified)
inactive

====

# assay-explanation: HSF-1 activators, primary screen, NIH3T3-HGL cells, MG132 stress, luminescence, single point (AID 504408);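 further: 0% = median of the neutral control wells and 100% = twice that signal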
# measurement-conditions: NIH3T3-HGL HSF-1 luciferase reporter, MG132, 8 h; at 9 µM; stronger effect = higher value; 100% = twice DMSO control signal
Screen size: about 300,000 compounds; about 5,200 (1.7%) were called active. The list comes from a sample in which actives are over-represented; it also holds close analogues and randomly drawn compounds.
measure-name: activation (%)
The response must be a number in % with no trailing unit.

// known answers, use as guide
>>> df
                                   compound  measure_name  reported_value
0         CCCCOc1ccc(-c2nnc(-c3ccco3)o2)cc1    activation            79.3
1  COc1ccc(CCNc2cc(N3CCN(C(=O)c4ccccc4OC)CC3)ccc2[N+](=O)[O-])cc1OC    activation            22.3
2  Cc1ccc(S(=O)(=O)NCCC(=O)NNC(=O)C2COc3ccccc3O2)cc1 (stereo not given)    activation            5.45
3  Cc1n[nH]c(=O)c2c(NC(=O)CSc3ccccc3F)oc(C)c12    activation            6.59
4        CCOc1ccc(C(=O)CCC(=O)NC2=NCCS2)cc1    activation            12.7
5  CCOc1ccc(NC(=O)CN(C)C(=O)c2c(C)noc2C)cc1OCC    activation            8.14
6  CC(=O)Nc1ccc(C(=O)NNC(=O)CCCCC(=O)NNC(=O)c2ccc(NC(C)=O)cc2)cc1    activation          0.0985
7  N#Cc1cccc(OC(=O)c2ccc3c(=O)n4c(nc3c2)CCC4)c1    activation          -0.984
8  CCOc1ccc(CCNC(=O)COC(=O)CCS(=O)(=O)c2ccc(C)cc2)cc1OCC    activation            1.98

Continue with the compound presented below.
Reported activation, compound COc1ccc(-c2cnc(SCCNC(=O)c3ccc4c(c3)OCO4)[nH]2)cc1 : ____
9.08

====

Reported activation by item:
# assay-explanation: HSF-1 activators, primary screen, NIH3T3-HGL cells, MG132 stress, luminescence, single point (AID 504408);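 further: 0% = median of the neutral control wells and 100% = twice that signal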
# measurement-conditions: NIH3T3-HGL HSF-1 luciferase reporter, MG132, 8 h; at 9 µM; stronger effect = higher value; 100% = twice DMSO control signal
Among all 300,000 compounds or so, about 5,200 (1.7%) were called active. The sample holds actives, similar compounds and a random draw of the others, so the mix is not that of the screen.
The response must be a number in % with no trailing unit.

Reported activation, molecule COc1ccc(-c2cc(C(F)(F)F)nc(S(C)(=O)=O)n2)cc1OC : ____
236

Ok, now C1=C(CCNc2ncnc3c2cnn3-c2ccccc2)CCCC1
61.4

Ok, now COc1ccc2c(c1)CCc1c(C(=O)N3CCCC3)noc1-2
54.9

Ok, now CC(OC(=O)CCCc1c[nH]c2ccccc12)C(=O)Nc1ccc(S(N)(=O)=O)cc1 (stereo unspecified)
8.99

Ok, now c1ccc(-n2ncc3c(N4CCCC4)ncnc32)cc1
41.2

Ok, now CCCn1nc(C(=O)NNC(=O)CCOc2ccccc2OCC)c2ccccc2c1=O
2.86

Ok, now Clc1ccc(-c2ncc3ccccn23)c(Cl)c1
69.3

Ok, now COc1cc(OC)nc(S(C)(=O)=O)n1
-10.3

Ok, now Clc1ccc(COn2c(-c3ccc(Cl)cc3Cl)nc3ncccc32)cc1
-4.74

Ok, now CN(CC(=O)NNC(=O)CNC(=O)c1ccccc1Cl)S(=O)(=O)c1ccc(Cl)cc1
-6.99

Ok, now O=C(NNc1ncnc2c1cnn2-c1ccccc1)c1ccco1
13.2

Data credit: PubChem BioAssay AID504408
